All figures here come from PubChem BioAssay AID1919017.

- Test system: SW1271 complex spheroids with HUVEC/MSC, growth, % test/control
- testProtocol: Anticancer human tumor SW1271 cell line growth inhibition [AhR];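 further: spheroids exposed to agents for 7 days before readout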
- reportedConditions: second compound 3.16 µM; first compound 0.1 µM; hits give low values
endpoint: viability, T/C (%)

{"molecule": "COc1cccc2c1C(=O)c1c(O)c3c(c(O)c1C2=O)CC(O)(C(=O)CO)CC3OC1CC(N)C(O)C(C)O1 (stereo unspecified) + Cc1ccccc1N=Nc1ccc(NC(=O)c2ccnn2C)c(C)c1", "targetUnderTest": "SW1271 complex spheroids with HUVEC/MSC, growth, % test/control", "number": 49.7}
{"molecule": "CC1COCCN1c1cc(C2(S(C)(=N)=O)CC2)nc(-c2ccnc3[nH]ccc23)n1 (stereo unspecified) + Cc1cncc(-c2nc(NCCc3c[nH]c4ccccc34)c3ncn(C(C)C)c3n2)c1", "targetUnderTest": "SW1271 complex spheroids with HUVEC/MSC, growth, % test/control", "number": 93}
{"molecule": "Cn1ncnc1C1c2n[nH]c(=O)c3cc(F)cc(c23)NC1c1ccc(F)cc1 (stereo unspecified) + Cc1ccccc1N=Nc1ccc(NC(=O)c2ccnn2C)c(C)c1", "targetUnderTest": "SW1271 complex spheroids with HUVEC/MSC, growth, % test/control", "number": 131}
{"molecule": "Nc1ccccc1NC(=O)c1ccc(CNC(=O)OCc2cccnc2)cc1 + Cc1cncc(-c2nc(NCCc3c[nH]c4ccccc34)c3ncn(C(C)C)c3n2)c1", "targetUnderTest": "SW1271 complex spheroids with HUVEC/MSC, growth, % test/control", "number": 107}
{"molecule": "Nc1ncn(C2CC(O)C(CO)O2)c(=O)n1 (stereo unspecified) + Cc1ccccc1N=Nc1ccc(NC(=O)c2ccnn2C)c(C)c1", "targetUnderTest": "SW1271 complex spheroids with HUVEC/MSC, growth, % test/control", "number": 63.7}
{"molecule": "O=C(C=Cc1cccc(S(=O)(=O)Nc2ccccc2)c1)NO + Cc1cncc(-c2nc(NCCc3c[nH]c4ccccc34)c3ncn(C(C)C)c3n2)c1", "targetUnderTest": "SW1271 complex spheroids with HUVEC/MSC, growth, % test/control", "number": 115}
{"molecule": "Nc1ncn(C2CC(O)C(CO)O2)c(=O)n1 (stereo unspecified) + Cc1cncc(-c2nc(NCCc3c[nH]c4ccccc34)c3ncn(C(C)C)c3n2)c1", "targetUnderTest": "SW1271 complex spheroids with HUVEC/MSC, growth, % test/control", "number": 104}
{"molecule": "CC1(C)CCC(CN2CCN(c3ccc(C(=O)NS(=O)(=O)c4ccc(NCC5CCOCC5)c([N+](=O)[O-])c4)c(Oc4cnc5[nH]ccc5c4)c3)CC2)=C(c2ccc(Cl)cc2)C1 + CC(CO)NC(=O)c1cc(-c2ccc(Cl)cc2)nn(-c2cnn(C)c2)c1=O", "targetUnderTest": "SW1271 complex spheroids with HUVEC/MSC, growth, % test/control", "number": 70.2}
{"molecule": "COc1ccc([C@@H](O)c2cc(-c3ncnc4cc(N5CCOCC5)ccc34)c(F)cc2Cl)nn1 + Cc1cncc(-c2nc(NCCc3c[nH]c4ccccc34)c3ncn(C(C)C)c3n2)c1", "targetUnderTest": "SW1271 complex spheroids with HUVEC/MSC, growth, % test/control", "number": 99}
{"molecule": "CC1(C)CCC(CN2CCN(c3ccc(C(=O)NS(=O)(=O)c4ccc(NCC5CCOCC5)c([N+](=O)[O-])c4)c(Oc4cnc5[nH]ccc5c4)c3)CC2)=C(c2ccc(Cl)cc2)C1 + Cc1ccccc1N=Nc1ccc(NC(=O)c2ccnn2C)c(C)c1", "targetUnderTest": "SW1271 complex spheroids with HUVEC/MSC, growth, % test/control", "number": 105}
{"molecule": "CC1COCCN1c1cc(C2(S(C)(=N)=O)CC2)nc(-c2ccnc3[nH]ccc23)n1 (stereo unspecified) + Cc1ccccc1N=Nc1ccc(NC(=O)c2ccnn2C)c(C)c1", "targetUnderTest": "SW1271 complex spheroids with HUVEC/MSC, growth, % test/control", "number": 112}
{"molecule": "Cn1ncnc1C1c2n[nH]c(=O)c3cc(F)cc(c23)NC1c1ccc(F)cc1 (stereo unspecified) + Cc1cncc(-c2nc(NCCc3c[nH]c4ccccc34)c3ncn(C(C)C)c3n2)c1", "targetUnderTest": "SW1271 complex spheroids with HUVEC/MSC, growth, % test/control", "number": 94.7}
{"molecule": "CC[C@@]1(O)C(=O)OCc2c1cc1n(c2=O)Cc2cc3c(CN(C)C)c(O)ccc3nc2-1 + Cc1cncc(-c2nc(NCCc3c[nH]c4ccccc34)c3ncn(C(C)C)c3n2)c1", "targetUnderTest": "SW1271 complex spheroids with HUVEC/MSC, growth, % test/control", "number": 78}
{"molecule": "NS(=O)(=O)OCC1CC(n2ccc3c(NC4CCc5ccccc54)ncnc32)CC1O (stereo unspecified) + Cc1cncc(-c2nc(NCCc3c[nH]c4ccccc34)c3ncn(C(C)C)c3n2)c1", "targetUnderTest": "SW1271 complex spheroids with HUVEC/MSC, growth, % test/control", "number": 168}
{"molecule": "O=C(c1cc(Cc2n[nH]c(=O)c3ccccc23)ccc1F)N1CCN(C(=O)C2CC2)CC1 + CC(CO)NC(=O)c1cc(-c2ccc(Cl)cc2)nn(-c2cnn(C)c2)c1=O", "targetUnderTest": "SW1271 complex spheroids with HUVEC/MSC, growth, % test/control", "number": 79.3}
{"molecule": "Nc1ccn(C2OC(CO)C(O)C2(F)F)c(=O)n1 (stereo unspecified) + Cc1cncc(-c2nc(NCCc3c[nH]c4ccccc34)c3ncn(C(C)C)c3n2)c1", "targetUnderTest": "SW1271 complex spheroids with HUVEC/MSC, growth, % test/control", "number": 78.6}
{"molecule": "CC(C)c1c(-c2ccccc2)nc2c(C#N)c[nH]n2c1=O + Cc1cncc(-c2nc(NCCc3c[nH]c4ccccc34)c3ncn(C(C)C)c3n2)c1", "targetUnderTest": "SW1271 complex spheroids with HUVEC/MSC, growth, % test/control", "number": 93.7}
{"molecule": "CC1(C)CCC(CN2CCN(c3ccc(C(=O)NS(=O)(=O)c4ccc(NCC5CCOCC5)c([N+](=O)[O-])c4)c(Oc4cnc5[nH]ccc5c4)c3)CC2)=C(c2ccc(Cl)cc2)C1 + Cc1cncc(-c2nc(NCCc3c[nH]c4ccccc34)c3ncn(C(C)C)c3n2)c1", "targetUnderTest": "SW1271 complex spheroids with HUVEC/MSC, growth, % test/control", "number": 98.5}
{"molecule": "COc1ccc([C@@H](O)c2cc(-c3ncnc4cc(N5CCOCC5)ccc34)c(F)cc2Cl)nn1 + CC(CO)NC(=O)c1cc(-c2ccc(Cl)cc2)nn(-c2cnn(C)c2)c1=O", "targetUnderTest": "SW1271 complex spheroids with HUVEC/MSC, growth, % test/control", "number": 80.4}
{"molecule": "COc1cccc2c1C(=O)c1c(O)c3c(c(O)c1C2=O)CC(O)(C(=O)CO)CC3OC1CC(N)C(O)C(C)O1 (stereo unspecified) + CC(CO)NC(=O)c1cc(-c2ccc(Cl)cc2)nn(-c2cnn(C)c2)c1=O", "targetUnderTest": "SW1271 complex spheroids with HUVEC/MSC, growth, % test/control", "number": 54}
{"molecule": "CC(C)c1c(-c2ccccc2)nc2c(C#N)c[nH]n2c1=O + Cc1ccccc1N=Nc1ccc(NC(=O)c2ccnn2C)c(C)c1", "targetUnderTest": "SW1271 complex spheroids with HUVEC/MSC, growth, % test/control", "number": 88.3}
